# Test system: NCI-H1781 (Lung Adenocarcinoma)
# Assay notes: combination Emax (second highest fraction inhibited in the dose matrix, 72 h); higher = more inhibition; extreme values may be limits of the assay
Note to self: values exactly at 0.4 are Y. So combination Emax at or above 0.4 is Y, below is N.

Input: Reported combination Emax reaches at least 0.4 for COc1nnc2ccc(N3CCC(c4ccc(OCCN5CCN(C)C(=O)[C@H]5C)cc4)CC3)nn12 [AZD5153] + Cc1c2c(nn1C)CSCc1cc(n(C)n1)CSc1cc(c3ccccc3c1)OCCCc1c(C(=O)O)n(C)c3c-2c(Cl)ccc13 [AZD5991] (first compound max 1 µM, 7x7, partner max 1 µM) ?
Output: Y

Input: Please check the record Cc1c2c(nn1C)CSCc1cc(n(C)n1)CSc1cc(c3ccccc3c1)OCCCc1c(C(=O)O)n(C)c3c-2c(Cl)ccc13 [AZD5991] + CC1(C)CCC(CN2CCN(c3ccc(C(=O)NS(=O)(=O)c4ccc(NCC5CCOCC5)c([N+](=O)[O-])c4)c(Oc4cnc5[nH]ccc5c4)c3)CC2)=C(c2ccc(Cl)cc2)C1 [Venetoclax] (first compound max 1 µM, 7x7, partner max 1 µM) and state if its combination Emax is at or above 0.4.
Output: Y

New cases:
Input: Please check the record CN(C)CCCOc1ccc(-c2ccc3ncc4c(c3c2)n(C2CCOCC2)c(=O)n4C)cn1 [AZD0156] + O=C(c1cc(Cc2n[nH]c(=O)c3ccccc23)ccc1F)N1CCN(C(=O)C2CC2)CC1 [Olaparib] (first compound max 3 µM, partner max 3 µM) and state if its combination Emax is at or above 0.4.
Output: Y

Input: Could you please find out whether CC(=O)c1c(C)c2cnc(Nc3ccc(N4CCNCC4)cn3)nc2n(C2CCCC2)c1=O [Palbociclib] + Cn1cnc2c(F)c(Nc3ccc(Br)cc3Cl)c(C(=O)NOCCO)cc21 [Selumetinib] (first compound max 10 µM, 7x7, partner max 10 µM) has combination Emax that meets 0.4 or exceeds it?
Output: N

Input: Is reported combination Emax greater than or equal to 0.4 here: C=CCn1c(=O)c2cnc(Nc3ccc(N4CCN(C)CC4)cc3)nc2n1-c1cccc(C(C)(C)O)n1 [AZD1775] + O=C(c1cc(Cc2n[nH]c(=O)c3ccccc23)ccc1F)N1CCN(C(=O)C2CC2)CC1 [Olaparib] (first compound max 1 µM, partner max 10 µM)
Output: Y

Input: Answer whether combination Emax of COc1cc2ncnc(Nc3ccc(F)c(Cl)c3)c2cc1OCCCN1CCOCC1 [Gefitinib] + CC(C)n1c(=O)n(C)c2cnc3cc(F)c(-c4ccc(OCCCN5CCCCC5)nc4)cc3c21 [AZD1390] (first compound max 10 µM, 7x7, partner max 0.3 µM) is greater than or equal to 0.4.
Output: Y

###

# System: CFPAC-1 (Pancreatic Carcinoma)
# Assay notes: Bliss excess, mean over the matrix (fraction); higher = more synergy
Reported metric: Bliss excess

Input: Can you share its Bliss excess? I mean this compound: Cc1c2c(nn1C)CSCc1cc(n(C)n1)CSc1cc(c3ccccc3c1)OCCCc1c(C(=O)O)n(C)c3c-2c(Cl)ccc13 [AZD5991] + C1CN(CCC1(C(=O)N[C@@H](CCO)C2=CC=C(C=C2)Cl)N)C3=NC=NC4=C3C=CN4 [Capivasertib] (first compound max 1 µM, 7x7, partner max 3 µM)
Output: 0.0021

Continuing:
Input: Fill in the blank: the reported Bliss excess of COc1nnc2ccc(N3CCC(c4ccc(OCCN5CCN(C)C(=O)[C@H]5C)cc4)CC3)nn12 [AZD5153] + Cc1c2c(nn1C)CSCc1cc(n(C)n1)CSc1cc(c3ccccc3c1)OCCCc1c(C(=O)O)n(C)c3c-2c(Cl)ccc13 [AZD5991] (first compound max 1 µM, 7x7, partner max 1 µM) is ____.
Output: -0.0208

###

Measured combination Emax by item
# System: SK-N-FI (Neuroblastoma)
# Assay notes: combination Emax (second highest fraction inhibited in the dose matrix, 72 h); higher = more inhibition; extreme values may be limits of the assay
No unit in the answer, please; the number alone is enough.

Input: Consider the compound O=C(c1cc(Cc2n[nH]c(=O)c3ccccc23)ccc1F)N1CCN(C(=O)C2CC2)CC1 [Olaparib] + CC1(C)CCC(CN2CCN(c3ccc(C(=O)NS(=O)(=O)c4ccc(NCC5CCOCC5)c([N+](=O)[O-])c4)c(Oc4cnc5[nH]ccc5c4)c3)CC2)=C(c2ccc(Cl)cc2)C1 [Venetoclax] (first compound max 10 µM, 7x7, partner max 1 µM) and give its measured combination Emax.
Output: 0.0529

Input: Please give the measured combination Emax for this compound: COc1nnc2ccc(N3CCC(c4ccc(OCCN5CCN(C)C(=O)[C@H]5C)cc4)CC3)nn12 [AZD5153] + C[C@@H]1COCCN1C2=NC(=NC(=C2)C3(CC3)[S@](=N)(=O)C)C4=C5C=CNC5=NC=C4 [AZD6738] (first compound max 1 µM, 7x7, partner max 10 µM)
Output: 0.783

Continuing:
Input: Any idea what its combination Emax is? The compound is Cc1cc2ncnn2cc1Nc1ncc2c(n1)n(C1CCOCC1)c(=O)n2C [AZD7648] + C=CCn1c(=O)c2cnc(Nc3ccc(N4CCN(C)CC4)cc3)nc2n1-c1cccc(C(C)(C)O)n1 [AZD1775] (first compound max 10 µM, partner max 1 µM)
Output: 0.591

###

# System: HPAC (Pancreatic Carcinoma)
# Assay notes: Bliss excess, mean over the matrix (fraction); higher = more synergy
Bliss excess overview
Give your answer as a number; write no unit.

Input: Recorded Bliss excess for Cc1nc(Nc2ncc(C(=O)Nc3c(C)cccc3Cl)s2)cc(N2CCN(CCO)CC2)n1 [Dasatinib] + CC(=O)Nc1cccc(-n2c(=O)n(C3CC3)c(=O)c3c(Nc4ccc(I)cc4F)n(C)c(=O)c(C)c32)c1 [Trametinib] (first compound max 2 µM, 7x7, partner max 1 µM) , please?
Output: 0.039

###

Below, each of the molecules is paired with its reported Bliss excess value.
# Test system: SK-N-FI (Neuroblastoma)
# Assay notes: Bliss excess, mean over the matrix (fraction); higher = more synergy
Just the number, please, no unit after it.

Input: What value of Bliss excess has been reported for the following molecule? C[C@@H](Nc1cc(F)cc(F)c1)c1cc(C(=O)N(C)C)cc2c(=O)cc(N3CCOCC3)oc12 [AZD8186] + C1CN(CCC1(C(=O)N[C@@H](CCO)C2=CC=C(C=C2)Cl)N)C3=NC=NC4=C3C=CN4 [AZD5363] (first compound max 10 µM, 7x7, partner max 10 µM)
Output: -0.0299

---
Input: Tell me the measured Bliss excess of CCc1c2c(nc3ccc(O)cc13)-c1cc3c(c(=O)n1C2)COC(=O)[C@]3(O)CC [SN-38] + CN(C)CCCOc1ccc(-c2ccc3ncc4c(c3c2)n(C2CCOCC2)c(=O)n4C)cn1 [AZD0156] (first compound max 0.3 µM, 7x7, partner max 1 µM) , please.
Output: 0.0628

###

# Test system: MFH-ino (Other Solid Carcinomas)
# Assay notes: combination Emax (second highest fraction inhibited in the dose matrix, 72 h); higher = more inhibition; extreme values may be limits of the assay
Recorded combination Emax by entry
Reply with the value as a number alone.

Solved entries (count: 2):
Input: Bench note: what combination Emax did COc1nnc2ccc(N3CCC(c4ccc(OCCN5CCN(C)C(=O)[C@H]5C)cc4)CC3)nn12 [AZD5153] + CCN(CCO)CCCOc1ccc2c(Nc3cc(CC(=O)Nc4cccc(F)c4)[nH]n3)ncnc2c1 [AZD2811] (first compound max 1 µM, 7x7, partner max 1 µM) show?
Output: 0.553

Input: Item CS(=O)(=O)CCNCc1ccc(-c2ccc3ncnc(Nc4ccc(OCc5cccc(F)c5)c(Cl)c4)c3c2)o1 [Lapatinib] + Cn1cnc2c(F)c(Nc3ccc(Br)cc3Cl)c(C(=O)NOCCO)cc21 [Selumetinib] (first compound max 10 µM, 7x7, partner max 10 µM) has what recorded combination Emax?
Output: 0.462

Please find the next molecule below.
Input: // combination Emax lookup, key: CN(CCO)CC[C@H](CSc1ccccc1)Nc1ccc(S(=O)(=O)NC(=O)c2ccc(N3CCC([C@@H](O)c4ccccc4-c4ccc(Cl)cc4)CC3)cc2)cc1S(=O)(=O)C(F)(F)F [AZD4320] + Cc1cc2ncnn2cc1Nc1ncc2c(n1)n(C1CCOCC1)c(=O)n2C [AZD7648] (first compound max 1 µM, 7x7, partner max 10 µM)
Output: 0.161

###

# System: ES7 (Ewing's Sarcoma)
# Assay notes: combination Emax (second highest fraction inhibited in the dose matrix, 72 h); higher = more inhibition; extreme values may be limits of the assay
Reported metric: combination Emax
Please reply with the number alone, leaving off any unit.

For orientation, consider the following solved cases.
Input: Using the record for Cn1cnc2c(F)c(Nc3ccc(Br)cc3Cl)c(C(=O)NOCCO)cc21 [Selumetinib] + CC(C)n1c(=O)n(C)c2cnc3cc(F)c(-c4ccc(OCCCN5CCCCC5)nc4)cc3c21 [AZD1390] (first compound max 10 µM, 7x7, partner max 0.3 µM) , report its combination Emax.
Output: 0.14

Input: Give its combination Emax value. Item: CN(CCO)CC[C@H](CSc1ccccc1)Nc1ccc(S(=O)(=O)NC(=O)c2ccc(N3CCC([C@@H](O)c4ccccc4-c4ccc(Cl)cc4)CC3)cc2)cc1S(=O)(=O)C(F)(F)F [AZD4320] + C=CCn1c(=O)c2cnc(Nc3ccc(N4CCN(C)CC4)cc3)nc2n1-c1cccc(C(C)(C)O)n1 [AZD1775] (first compound max 1 µM, partner max 1 µM)
Output: 0.935

Okay, now this compound:
Input: Return reported combination Emax; argument: CN(C)CCCOc1ccc(-c2ccc3ncc4c(c3c2)n(C2CCOCC2)c(=O)n4C)cn1 [AZD0156] + C=CCn1c(=O)c2cnc(Nc3ccc(N4CCN(C)CC4)cc3)nc2n1-c1cccc(C(C)(C)O)n1 [AZD1775] (first compound max 1 µM, partner max 1 µM)
Output: 0.542

Attribution: the supplement of paper PMC11061612
